Test system: Staphylococcus aureus
Test: Antibacterial activity against Staphylococcus aureus NCIM 2079; ATCC 6538P at […] after 24 hrs by agar cup plate method
Assay type: functional, NCIM 2079; ATCC6538P
Design: dose or concentration left out as unconfirmed
Conditions: ATCC6538P, read-out: IZ
Consider the following compounds; for each one, report its zone of inhibition.
Give the value in mm but do not write mm after it.

INPUT: Note zone of inhibition for the compound shown: O=C(c1ccccc1)c1cc(Cl)ccc1OCc1nc(-c2ccccc2)no1
OUTPUT: 9

INPUT: Note zone of inhibition for the compound shown: O=C(c1ccccc1)c1cc(Cl)ccc1OCc1nc(-c2ccc(F)cc2)no1
OUTPUT: 14

INPUT: Note zone of inhibition for the compound shown: CCOc1ccc(-c2noc(COc3ccc(Cl)cc3C(=O)c3ccccc3)n2)cc1
OUTPUT: 19

INPUT: Note zone of inhibition for the compound shown: Cc1cc(F)c(-c2noc(COc3ccc(Cl)cc3C(=O)c3ccccc3)n2)cc1F
OUTPUT: 25

INPUT: Note zone of inhibition for the compound shown: O=C(c1ccccc1)c1cc(Cl)ccc1OCc1nc(-c2ccc(F)c(Cl)c2)no1
OUTPUT: 17

INPUT: Note zone of inhibition for the compound shown: COc1cc(-c2noc(COc3ccc(Cl)cc3C(=O)c3ccccc3)n2)ccc1F
OUTPUT: 18

INPUT: Note zone of inhibition for the compound shown: CC1(C)S[C@@H]2[C@H](NC(=O)[C@H](N)c3ccccc3)C(=O)N2[C@H]1C(=O)O [AMPICILLIN]
OUTPUT: 31

INPUT: Note zone of inhibition for the compound shown: CC(C)c1ccc(-c2noc(COc3ccc(Cl)cc3C(=O)c3ccccc3)n2)cc1
OUTPUT: 15

INPUT: Note zone of inhibition for the compound shown: Cc1cc(-c2noc(COc3ccc(Cl)cc3C(=O)c3ccccc3)n2)ccc1F
OUTPUT: 15

INPUT: Note zone of inhibition for the compound shown: O=C(c1ccccc1)c1cc(Cl)ccc1OCc1nc(-c2ccc(I)cc2)no1
OUTPUT: 13
